- System: LOX IMVI melanoma
- experimentDescription: NCI tumour cell line growth inhibition, 48 h
Give TGI for every item shown.

Give its TGI value. Item: O=c1[nH][nH]c(=O)n1Cc1ccccc1Cn1c(=O)[nH][nH]c1=O > 100 µM

Request the reported TGI associated with CC(C)c1ccc(/C=C2/C=C(c3ccc4ccccc4c3)OC2=O)cc1 > 100 µM

Quick one: TGI for CCOC(=O)C1=C(C)NC(=S)NC1c1ccccc1 (stereo not given) ? > 100 µM

Requested read-out: TGI. Entry: C=C(C1=CC(=O)C(C)(C)O1)[C@@H]1CC=C([C@@H]2CC[C@H]3[C@@]2(C)CC[C@H]2C(C)(C)C(=O)[C@H](O)C[C@]32C)[C@H](O)O1 3.45 µM

Param item = N#CC1C(C#N)C2(c3ccccc3)C(c3ccccc3)=NN(c3ccccc3)CC12 (stereo not given) ; retrieve measured TGI. > 100 µM

Which TGI value is on record for O=C(/C=C/c1ccccc1)NC1C=Nc2ccc(Cl)cc2NC1=O (stereo not given) ? 55.9 µM

I have this molecule here, CCCNC1=C2CC(C)CC(OC)[C@@H](O)[C@H](C)/C=C(\C)C(OC(N)=O)C(OC)/C=C\C=C(/C)C(=O)NC(=CC1=O)C2=O (stereo not given in full) , and I need its recorded TGI. 0.614 µM

TGI lookup needed for COC(=O)c1cc2c(n1S(=O)(=O)c1ccc(C)cc1)C(=O)C(=O)c1[nH]cc(C(=O)OCc3ccccc3)c1-2 , thanks. 0.176 µM

Look at this molecule and give its reported TGI. CCOC(=O)CN1C(=O)c2cccc3cc([N+](=O)[O-])cc(c23)C1=O 2.74 µM

Data request, read-out TGI, for C(/c1ccco1)=c1/nc(-c2ccccc2)n2c1nc1ccccc12 > 100 µM

# query: TGI of entry O=C(O)CCc1coc2ccc(O)cc12 > 100 µM

TGI for COc1cc(/C=C2\S/C(=N/Nc3nc(-c4ccc(Br)cc4)cs3)NC2=O)cc(OC)c1OC ? 33.2 µM

May I ask what TGI has been recorded for CCOc1ccc(NC(=O)C(=O)CC(=O)c2c[n+](=O)c3cc(C)c(C)cc3n2[O-])cc1 ? > 100 µM

I would be grateful if you could share the reported TGI for Cc1cccc2c(=O)cc(-c3ccccc3)[nH]c12 . > 100 µM

Could you share which TGI value was measured for Cc1nc2ccccc2c(N)c1-c1cc(C)c2c(C)nc3ccccc3c2n1 ? 0.717 µM

Could you share which TGI value was measured for COC(CN1C(=O)c2cccc3cccc(c23)C1=O)OC ? > 100 µM

Name the recorded TGI for Cc1ccsc1/C=N/Nc1ncccn1 . > 100 µM

I am curious: what TGI value has been reported for CC1=C(C)[C@@]2(C)O[C@@]2(C)O[C@@]2(C)O[C@@]12C ? > 100 µM

// TGI lookup, key: Clc1ccc2c(NCCCCNc3nc(N4CCCCC4)nc4ccccc34)ccnc2c1 3.14 µM

Sample CCCCC(=O)OCC(=O)[C@]1(O)Cc2c(O)c3c(c(O)c2[C@@H](OC2CC(NC(=O)C(F)(F)F)C(O)C(C)O2)C1)C(=O)c1c(OC)cccc1C3=O (stereo not given in full) — what was its TGI? 1.37 µM

Data provenance: PubChem BioAssay (NCI)
